test: in vivo; conditions: both, mouse, po, 9 mg/kg
endpoint.label: concentration at 1 h

> print(dat)
                                   compound  test.value
1  CCCc1nn(C)c2c(=O)[nH]c(-c3cc(S(=O)(=O)N4CCN(C)CC4)ccc3OCC)nc12 [sildenafil, reference compound]      250 nM

====

experiment: Tolerability and plasma level with compound in drinking water for up to 8 days; type: in vivo; details: male, mouse, plasma, oral, 9 mg/kg daily; mice, in drinking water for 8 days
endpoint.label: concentration at 8 days (nM)

> print(dat)
                                   compound  test.value
1  CCCc1nn(C)c2c(=O)[nH]c(-c3cc(S(=O)(=O)N4CCN(C)CC4)ccc3OCC)nc12 [sildenafil, reference compound]         3.3
